Where do these numbers come from? They come from the supplement of paper PMC9170038.

- Tested on: MS2 coat protein
- Experiment summary: apparent KD of MS2 coat protein; designed switch direction (-1 OFF switch, 1 ON switch): -1; higher = weaker reporter binding
- Experimental conditions: input ligand: microRNA oligo, concentration not stated
Measured apparent KD of MS2 coat protein of individual entries
Answer in nM, number only, no unit symbol.

Examples with their reported apparent KD of MS2 coat protein follow.
Seq text	Unit name	apparent KD of MS2 coat protein
UAUAUAUAGUAAGGAUAUGUAUAUAUUAUAUAAACAGAAGGUACUGACAUGAGGAUCACCCAUGUUUUAGUGUGGGCAUGUAGA [JMF's solution 60] (Eterna round: R96, puzzle: Exclusion NG 1)	nM	53.3
AUUAUACAUGUAGGAUAUCUGCACGUUUAGUGCAGAGAAGGACAUGAGGAUCACCCAUGUAGAUCAAUAAUAAUUAAUUUAAUU [ENG1/6-B2] (Eterna round: R96, puzzle: Exclusion NG 1)	nM	203

Query: Any idea what apparent KD of MS2 coat protein came out for GAAAAACAUGAGGAUCACCCAUGUAAGGAUAUGCUGAAAAACACGGAAAAAACGUGCAGCAGAAGGUACAAAAG [Mat - Exclusion 1 - Eli mod - D91] (Eterna round: R96, puzzle: Exclusion 1) on MS2 coat protein?
Response: 44.8

----------
- System: MS2 coat protein
- Experiment summary: apparent KD of MS2 coat protein; designed switch direction (-1 OFF switch, 1 ON switch): -1; higher = weaker reporter binding
- Experimental conditions: input ligand: FMN 200 uM
Recorded metric: apparent KD of MS2 coat protein (µM)
I only need the number, in µM, no unit after it.

Seq text	Test target	Quantitative result
GGAUCGAGUGUGAGGAUAUACCUAUGGAAACAUAGGUAGAAGGCACAUGAGGAUCACCCAUGUUCCAACGGUCC [Mat - Exclusion 4 - Eli Mod - D11] (Eterna round: R97, puzzle: Brourd's mod of Exclusion 4)	MS2 coat protein	0.715
GAAUAGAGAGGAUAUGCAAUGUAGGUAGUACGAUAUAUCUGACAUGAGGAUCACCCAUGUAGAAGGCUCAGAUC [EX2 #7] (Eterna round: R97, puzzle: Exclusion 2)	MS2 coat protein	0.0404
GCUGCGCGAGGAUAUGCGGUUUGCGCUGUGGCCCGUGGCGUACAUGAGGAUCACCCAUGUAGAAGGCGUGUGGG [Apr-15 SS2-55] (Eterna round: R96, puzzle: Exclusion 2)	MS2 coat protein	0.0276

Continue with the next sequence.
Query: apparent KD of MS2 coat protein; subject: UUCUGCACGCUGCGGUCCUACAUGAGGAUCACCCAUGUGGUCUGGUGGCGUGGGUCGCCGGACUUGGCUCGUCUUGG [salish99_S_TOV1_R5_049] (Eterna round: R97, puzzle: Sensor, turn-off variant 1)
Response: 0.0154

----------
- System: MS2 coat protein
- Experiment summary: apparent KD of MS2 coat protein; designed switch direction (-1 OFF switch, 1 ON switch): -1; higher = weaker reporter binding
- Experimental conditions: input ligand: none
This section presents sequences with their documented apparent KD of MS2 coat protein values.
Form entry: value (nM) — number only.

Query: Can you look up the measured apparent KD of MS2 coat protein of UACAUGAGGAUCACCCAUGUUUUGUCGUGUAUGGUAUUUAUCUAGGAUAUCAAUUGAUUUAGUUAUGAGAAGGAGAAUAUUAAU [JMF's solution 62] (Eterna round: R96, puzzle: Exclusion NG 3) for me?
Response: 30.1

Query: Find the recorded apparent KD of MS2 coat protein belonging to CGUGGAUGAAAGGAUAUUGAGGUCUGACUGCCACAAGAAGGUUCAACAUGAGGAUCACCCAUGUCUGAUCCUAA [Xeanorti] (Eterna round: R97, puzzle: Exclusion 6) and report it.
Response: 14.2

Query: Give its apparent KD of MS2 coat protein value. Item: AAAUAGCUAGAGGAUAUCGGAUAGGAUUUAUUACGAGAAGGUUAGACAUGAGGAUCACCCAUGUUCUGUUGGGA [EX6 #21] (Eterna round: R97, puzzle: Exclusion 6)
Response: 34.6

Query: Field request: apparent KD of MS2 coat protein | item: AAAUCGGAGGAGGAUAUCGUACAGGAAACGGUGCGAGAAGGUUUCACAUGAGGAUCACCCAUGUCAAAUAGCGA [EX6 #58] (Eterna round: R97, puzzle: Exclusion 6)
Response: 16.4

Query: # apparent KD of MS2 coat protein lookup, item AUGCCCUGAGGAUAUCUCAUCCCGCACAUGAGGAUCACCCAUGUUCUUCUCCGGGUUUCGAGAGAAGGCAGGCCUA [Armus4] (Eterna round: R97, puzzle: Exclusion 5)
Response: 249

Query: For the sequence shown here, AUUGUUUAUGUAGGAUAUGCCUGGCGUGCCUUUGCAGAAGGACAUGAGGAUCACCCAUGUAUUGCGGUCUGCGUUCAGAUCGCC [salish99_ExNG1_r4_035] (Eterna round: R96, puzzle: Exclusion NG 1) , give the reported apparent KD of MS2 coat protein.
Response: 24.1
